Measured Ki values are reported for all entries that follow.
- System name: SGLT2 (Homo sapiens, UniProt P31639)
- Construct: expressed in transfected cells
- Sequence (P31639 whole entry): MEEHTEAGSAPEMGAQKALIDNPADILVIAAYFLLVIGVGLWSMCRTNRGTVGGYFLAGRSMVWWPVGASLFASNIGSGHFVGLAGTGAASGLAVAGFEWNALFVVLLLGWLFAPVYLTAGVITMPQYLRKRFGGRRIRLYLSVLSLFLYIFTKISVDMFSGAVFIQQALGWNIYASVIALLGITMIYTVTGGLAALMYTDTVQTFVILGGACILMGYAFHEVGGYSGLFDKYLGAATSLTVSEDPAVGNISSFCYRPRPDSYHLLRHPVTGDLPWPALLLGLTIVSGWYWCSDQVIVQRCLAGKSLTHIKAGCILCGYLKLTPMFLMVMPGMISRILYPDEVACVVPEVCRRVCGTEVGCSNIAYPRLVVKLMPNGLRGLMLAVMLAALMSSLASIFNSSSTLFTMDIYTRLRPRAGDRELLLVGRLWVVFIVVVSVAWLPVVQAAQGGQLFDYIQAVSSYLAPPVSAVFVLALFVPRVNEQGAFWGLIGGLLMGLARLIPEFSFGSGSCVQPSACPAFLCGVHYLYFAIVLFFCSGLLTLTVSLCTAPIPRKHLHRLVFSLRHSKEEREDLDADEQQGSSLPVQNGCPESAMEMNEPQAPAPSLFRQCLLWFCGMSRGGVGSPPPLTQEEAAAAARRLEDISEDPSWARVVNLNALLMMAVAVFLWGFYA
- Run description: SGLT2 inhibition with varied substrate AMG concentration (Dixon / L-B plot)
- Format: cell-based
- Test parameters: from slope of L-B plot, CHO-SGLT2
Parameter measured: Ki (nM)

- OC[C@H]1O[C@@H](c2cc(Cc3ccc(C4CC4)cc3)c(Cl)c3c2CC(O)O3)[C@H](O)[C@@H](O)[C@@H]1O (stereo partly shown) [M1]: 7.49
- OC[C@H]1O[C@@H](c2cc(Cc3ccc(C4(O)CC4)cc3)c(Cl)c3c2CCO3)[C@H](O)[C@@H](O)[C@@H]1O [M2]: 6.18
- OC[C@H]1O[C@@H](c2cc(Cc3ccc(C4CC4)cc3)c(Cl)c3c2CCO3)[C@H](O)[C@@H](O)[C@@H]1O [Enavogliflozin]: 0.411
- OC[C@H]1O[C@@H](c2ccc(Cl)c(Cc3ccc(O[C@H]4CCOC4)cc3)c2)[C@H](O)[C@@H](O)[C@@H]1O [Empagliflozin]: 5.15
